SYSTEM_NAME: Recombinant human Farnesyl Pyrophosphate synthase (FPPS) (Homo sapiens)
Construct: made in house
Sequence (P14324 72-419 limits assumed): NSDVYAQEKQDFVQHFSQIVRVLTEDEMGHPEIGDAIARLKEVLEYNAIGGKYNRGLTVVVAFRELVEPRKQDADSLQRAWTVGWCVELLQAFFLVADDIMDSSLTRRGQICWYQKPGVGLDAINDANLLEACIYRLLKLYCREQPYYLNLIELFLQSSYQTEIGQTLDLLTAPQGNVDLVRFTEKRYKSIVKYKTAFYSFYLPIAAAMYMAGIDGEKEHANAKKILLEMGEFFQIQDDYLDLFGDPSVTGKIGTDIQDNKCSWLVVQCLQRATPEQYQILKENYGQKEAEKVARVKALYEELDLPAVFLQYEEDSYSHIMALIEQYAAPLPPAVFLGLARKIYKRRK
PROTOCOL_TEXT: FPPS SPA (scintillation proximity FlashPlate assay of FPPS inhibition)
Type: biochemical
TEST_CONDITIONS: Example 13 table; FPPS SPA; read-out: IC50
pIC50: −log10 of the molar value.
# pIC50 >= 6 gives Fulfilled, anything below gives Not fulfilled

Solved entries:
>>> answer_label("Cn1ccc2cc(-c3ccc(C(=O)O)c(OCc4cccc5ccccc45)c3)ccc21")
"Fulfilled"
>>> answer_label("Cc1cc(Cl)ccc1-c1ccc(C(=O)O)c(OCc2cccc3ccccc23)c1")
"Fulfilled"
>>> answer_label("CC(=O)Nc1ccc(-c2ccc(C(=O)O)c(OCc3cccc4ccccc34)c2)cc1")
"Fulfilled"
>>> answer_label("COc1cccc(-c2ccc(C(=O)O)c(OCc3cccc4ccccc34)c2)c1")
"Not fulfilled"
>>> answer_label("O=C(O)c1ccc(-c2cccc(O)c2)cc1OCc1cccc2ccccc12")
"Fulfilled"

# input API: above_or_equal(metric=pIC50, cutoff=6) for item O=C(O)c1ccc(-c2ccc3[nH]ccc3c2)cc1OCc1cccc2ccccc12
# output Fulfilled

# input API: above_or_equal(metric=pIC50, cutoff=6) for item O=C(O)c1ccc(-c2ccc3c(c2)OCCO3)cc1OCc1cccc2ccccc12
# output Fulfilled

# input API: above_or_equal(metric=pIC50, cutoff=6) for item Cc1cccc(-c2ccc(C(=O)O)c(OCc3cccc4ccccc34)c2)c1
# output Fulfilled

# input API: above_or_equal(metric=pIC50, cutoff=6) for item O=C(O)c1ccc(-c2cccc(OC(F)(F)F)c2)cc1OCc1cccc2ccccc12
# output Not fulfilled

# input API: above_or_equal(metric=pIC50, cutoff=6) for item Cc1ccccc1-c1ccc(C(=O)O)c(OCc2cccc3ccccc23)c1
# output Fulfilled

# input API: above_or_equal(metric=pIC50, cutoff=6) for item O=C(O)c1ccc(-c2ccc3c(c2)OCO3)cc1OCc1cccc2ccccc12
# output Fulfilled

# input API: above_or_equal(metric=pIC50, cutoff=6) for item O=C(O)c1ccc(-c2cccc(CO)c2)cc1OCc1cccc2ccccc12
# output Fulfilled

Provenance of the data: patent US20110288057A1
